Assay: 384-well plate pilot, post-Golgi transport modulator project, inhibition of yeast transport mutant growth (AID 636); note: test concentration not given here
Conditions: absorbance 615 nm, about 18 h, stronger effect = higher value
# inhibition per record follows
Express the result in % but write the number alone.

compound | readout_type | reported_measurement
CCCc1cc(N2CCCC2)n2nc(C)c(-c3ccccc3)c2n1 | inhibition | -4.93
COC(=O)c1ccc2c(=O)n(Cc3ccco3)c(SCC(=O)Nc3ccc(C)c(Cl)c3)nc2c1 | inhibition | -1.71
O=C(COc1ccc(S(=O)(=O)NC2CCCCC2)cc1)NCc1ccccn1 | inhibition | -7.26
Cc1c(C#N)c(N)c(C(=O)c2ccccc2)n1Cc1ccccc1 | inhibition | -7.57
Cc1ccc(Cl)c(Nc2ccccc2C(=O)O)c1Cl | inhibition | -0.78
O=C(CN1CCN(C2CCCCC2)CC1)Nc1ccccc1-c1ccccc1 | inhibition | -3.24
CCn1ncc(C2=NOC(C(=O)N3CCC(C(N)=O)CC3)C2)c1C (stereo unspecified) | inhibition | -1.05
C=CCn1c(SCC#N)nc2c(c1=O)C(C)(C)Cc1ccccc1-2 | inhibition | -5.62
COC(=O)c1ccccc1NC(=O)CN1CCC(n2nnc3cc(F)ccc32)CC1 | inhibition | -6.16
CCn1cnc2sc(C(=O)Nc3ccc4c(c3)OCO4)c(C)c2c1=O | inhibition | -8

Next compound, please.
# lookup: inhibition of CCOC(=O)/C=C1\SCC(=O)N1Cc1nnc(-c2ccccc2Br)o1 -7.81
